Measured values drawn from patent US20250332173A1 for this set.

Quick reference for IC50 among some compounds
- System: HTT
- PROTOCOL_SUMMARY: HiBiT protein abundance assay, HTT HiBiT K562 cell line
- Type: cell-based, human
- CONDITION_DETAILS: HiBiT K562 cell line, 24 hours, top dose 10 μM; read-out: Effect on protein abundance, HTT (IC50 category)

Worked cases, answers included:
Cc1cn2cc(-c3ccc4c(=O)n(C5CCN(C)CC5)cnc4c3F)cc(F)c2n1; 1 to 10 µM
Cn1cc2nc(-c3ccc4c(=O)n(C5CCNC6(CC6)C5)ncc4c3)ccc2n1 (centres unmarked); 0.1 to 1 µM
Cc1cn2cc(-c3ccc4c(=O)n(C5CCNC6(CC6)C5)ncc4c3)cc(Cl)c2n1 (centres unmarked); 0.1 to 1 µM
COc1cc2c(=O)n(C3CCNCC3)cnc2cc1-c1cc(C)c2nc(C)cn2n1; > 10 µM
Cc1cn2nc(-c3cc(F)c4c(=O)n(C5CCN(C)CC5)ncc4c3)cc(C)c2n1; < 0.1 µM

Here is the next item to consider.
IC50 in this record for `Cc1cn2cc(-c3ncc4c(=O)n([C@H]5CCNC5)ccc4n3)cc(F)c2n1` : 0.1 to 1 µM

---

- System: MYB mRNA
- PROTOCOL_SUMMARY: RT-qPCR splicing assay, MYB canonical junction (CJ) and alternative junction (AJ) mRNA
- Assay type: cell-based, human
- CONDITION_DETAILS: Homo sapiens; decrease in MYB canonical junction (CJ) mRNA, RT-qPCR; read-out: MYB CJ IC50
pIC50: −log10 of the molar value.
Quick reference for pIC50 among some compounds

Worked cases, answers included:
Cc1c(O)c(-c2ccc3c(=O)n([C@@H]4CCNC4)ccc3n2)cc2cn(C)nc12; 6.00 to 7.00
Cc1cn2nc(-c3cc(O)c4c(=O)n(C5CCNCC5)ccc4c3)cc(C)c2n1; > 7.00
Cc1cn2nc(-c3ccc4c(=O)n([C@H]5CCN(C)[C@H](C)C5)ncc4c3)cc(C)c2n1; 6.00 to 7.00

pIC50 in this record for CNC1CCN(c2ccc3cc(-c4cc(C)c5nc(C)cn5n4)ccn3c2=O)C1 (centres unmarked) : 6.00 to 7.00

pIC50 in this record for `Cc1cn2cc(-c3ccc4c(=O)n(C5CCNCC5)cc(C)c4c3)cc(F)c2n1` : > 7.00

pIC50 in this record for `Cc1cn2nc(-c3ccc4c(=O)n(C5CCN(C)CC5)cnc4c3)nc2c(C)n1` : 5.00 to 6.00

pIC50 in this record for `Cc1cn2cc(-c3ccc4c(=O)n(C5CCNCC5)ncc4c3)cc(F)c2n1` : 6.00 to 7.00

pIC50 in this record for `CCN1CC[C@H](n2ncc3nc(-c4cc(C)c5nc(C)cn5n4)ccc3c2=O)CC12CC2` : 6.00 to 7.00

---

Quick reference for IC50 among some compounds
- Test system: Target C
- PROTOCOL_SUMMARY: RT-qPCR splicing assay panel, Target C canonical junction (CJ) mRNA
- Assay type: cell-based, human
- CONDITION_DETAILS: Homo sapiens; canonical junction qPCR panel, Table 5; read-out: Target C (decrease in CJ mRNA levels, IC50)

Worked cases, answers included:
Cc1c(O)c(-c2ncc3c(=O)n([C@@H]4C[C@H]5COC[C@@H](C4)N5)ccc3n2)cc2cn(C)nc12 [Compound 1471]; 100 to 1000 nM
Cc1cn2cc(-c3ncc4c(=O)n([C@@H]5CCNC(C)(C)C5)ccc4n3)cc(F)c2n1 [Compound 1496]; 1000 to 10000 nM
Cc1cn2cc(-c3ncc4c(=O)n([C@H]5CCN[C@@H](C)C5)ccc4n3)cc(F)c2n1 [Compound 1500]; 100 to 1000 nM
Cc1cn2cc(-c3ncc4c(=O)n([C@H]5CCNC6(CC6)C5)ccc4n3)cc(F)c2n1 [Compound 1458]; 100 to 1000 nM
Cc1cn2cc(-n3cnc4ccc(N(C)C5CCNCC5)cc4c3=O)cc(F)c2n1 [Compound 2200]; > 10000 nM

IC50 in this record for Cc1cn2nc(-c3ccc4c(=O)n(C5CC(C)N[C@H](C)C5)ncc4n3)cc(C)c2n1 (stereo in doubt) [Compound 1536] : 100 to 1000 nM

IC50 in this record for CN1CCC(N(C)c2ccc3ncn(-c4cc(F)c5nn(C)cc5c4)c(=O)c3c2)CC1 [Compound 2199] : > 10000 nM
